target: UniProt P21453; assay: 35S-GTPyS binding assay (membranes); assay type: biochemical; settings: compound 0.1nM-10µM, 0.1nM 35S-GTPyS, 10µM S1P as 100% maximum efficacy, 90 min at room temperature
Sequence (P21453 whole entry, species assumed): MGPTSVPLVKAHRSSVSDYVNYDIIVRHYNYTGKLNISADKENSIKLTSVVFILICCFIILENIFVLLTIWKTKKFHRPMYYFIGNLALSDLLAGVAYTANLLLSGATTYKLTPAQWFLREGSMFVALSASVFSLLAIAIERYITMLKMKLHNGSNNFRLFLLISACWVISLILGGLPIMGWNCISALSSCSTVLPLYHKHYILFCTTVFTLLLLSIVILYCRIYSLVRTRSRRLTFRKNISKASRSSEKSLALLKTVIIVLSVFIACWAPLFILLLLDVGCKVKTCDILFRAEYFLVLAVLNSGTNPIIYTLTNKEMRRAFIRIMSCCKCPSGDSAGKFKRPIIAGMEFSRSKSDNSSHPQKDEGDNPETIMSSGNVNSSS
pEC50: −log10 of the molar value.
Measured Property: pEC50

// known answers, use as guide
> print(dat)
                        structure.as.smiles  subject.of.test  measured.property  value.reported
1  CCCCN(C(=O)Nc1ccccc1)c1nnc(-c2ccc(CN3CC(C(=O)O)C3)cc2)s1   UniProt P21453              pEC50            7.15
2  CCCCN(C(=O)c1ccccc1F)c1nnc(-c2cc(C)c(OCCNCCc3nn[nH]n3)c(C)c2)s1   UniProt P21453              pEC50            9.40

1: CCCCN(C(=O)c1ccccc1F)c1nnc(-c2cc(C)c(OCCN3CC(C(=O)O)C3)c(C)c2)s1
2: CCCCN(C(=O)c1ccccc1F)c1nnc(-c2cc(C)c(OCCN(C)CCO)c(C)c2)s1
stdin: Compare the recorded pEC50 of 1 and 2 ; state which is larger. // output: label of the selected item
stdout: 1
